target: Cytochrome P450 2C9 (Homo sapiens) (UniProt P11712); assay: Cytochrome panel assay with activity outcomes; details: recombinant CYP, pro-luciferin dealkylation, luminescence, p450-cyp2c9; series mostly up to 57.1 µM
Sequence (P11712 whole entry, looked up): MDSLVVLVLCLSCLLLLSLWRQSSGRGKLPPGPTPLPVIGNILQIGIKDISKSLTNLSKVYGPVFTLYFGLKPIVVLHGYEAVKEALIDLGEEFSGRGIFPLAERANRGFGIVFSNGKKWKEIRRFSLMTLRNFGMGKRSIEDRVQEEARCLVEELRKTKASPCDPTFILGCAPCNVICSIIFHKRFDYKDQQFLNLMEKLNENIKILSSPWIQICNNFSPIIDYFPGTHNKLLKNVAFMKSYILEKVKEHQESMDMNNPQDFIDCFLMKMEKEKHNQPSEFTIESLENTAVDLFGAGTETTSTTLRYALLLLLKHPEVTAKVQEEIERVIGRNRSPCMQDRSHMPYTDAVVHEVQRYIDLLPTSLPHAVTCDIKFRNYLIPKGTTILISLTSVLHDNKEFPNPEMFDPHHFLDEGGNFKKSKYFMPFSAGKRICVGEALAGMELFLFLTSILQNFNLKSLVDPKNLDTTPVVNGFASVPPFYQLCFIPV
About 4,000 (25%) of roughly 16,000 compounds were called active. Another 26% or so got no clear call; they are omitted. Not all results are given here.
measured-property: AC50

// known answers, use as guide
| compound | AC50 |
| --- | --- |
| COC(=O)c1nnn(Cc2ccccc2)c1N | inactive |
| Cc1ccc(C(=O)N/C(=C\c2ccc([N+](=O)[O-])cc2)C(=O)NCCc2ccccc2)cc1 | inactive |
| Cc1ccccc1-c1nc(-c2ccc(NC(=O)c3cccs3)cc2)no1 | 12.6 µM (active) |
| Cc1ccc(-c2nnc(-c3ccc(NC(=O)c4cccs4)cc3)o2)cc1 | 5.01 µM (active) |

Look up AC50: O=C(Nc1ccccc1)/C(=C\c1ccncc1)NC(=O)c1ccccc1
0.2 µM (active)

Recorded AC50 for CC(=O)N(O)CCCCCNC(=O)CCC(=O)N(O)CCCCCNC(=O)CCC(=O)N(O)CCCCCN , please?
inactive

For the compound shown here, COc1ccc(NC(=O)/C(=C\c2cc(OC)c(OC)cc2[N+](=O)[O-])NC(=O)c2ccccc2)cc1 , give the reported AC50.
7.94 µM (active)

Could you tell me which AC50 is on file for CC1(C)O[C@H]2C[C@@H]3[C@H]4CCC5=CC(=O)CC[C@@]5(C)[C@]4(F)[C@@H](O)C[C@@]3(C)[C@@]2(C(=O)CCl)O1 ?
inactive

Entry CS(=O)(=O)c1ccccc1-c1nc(-c2cc(C(F)(F)F)cc(C(F)(F)F)c2)no1 : reported AC50 = ?
inactive

src = PubChem BioAssay AID1851
